Provenance of the data: patent US5342845A

Test system: Bezold-Jarisch reflex (serotonin-induced decrease in heart rate)
Test: Inhibition of serotonin-induced Bezold-Jarisch reflex
Format: in vivo, male rats
Settings: Rattus norvegicus, iv, 5 min; i.v. 5 min before 0.1 mg/kg i.v. serotonin; dose inhibiting response by 50%
Where a name gives a salt, the structure may show the parent alone.
Readout: log10 ED50 (log10 of the value in µg/kg)
Hi team, quick reminder: these entries are log10 of ED50 (µg/kg).

Reference set, count: 4
compound="Cn1c(-c2ccccc2Cl)c(C(=O)NC2CN3CCC2CC3)c2ccccc21 (stereo not shown) [Example 10, hydrochloride]" system_under_test="Bezold-Jarisch reflex (serotonin-induced decrease in heart rate)" readout="log10 ED50" meas_value=-0.60
compound="CN1C2CCC1CC(OC(=O)c1c[nH]c3ccccc13)C2 (stereo not shown) [ICS-205-930, reference compound]" system_under_test="Bezold-Jarisch reflex (serotonin-induced decrease in heart rate)" readout="log10 ED50" meas_value=0.25
compound="COc1ccccc1-c1c(C(=O)NC2CN3CCC2CC3)c2ccccc2n1C (stereo not shown) [Example 8, hydrochloride]" system_under_test="Bezold-Jarisch reflex (serotonin-induced decrease in heart rate)" readout="log10 ED50" meas_value=-0.74
compound="COc1ccc(-c2c(C(=O)N[C@@H]3CN4CCC3CC4)c3ccccc3n2C)cc1 [Example 2, hydrochloride]" system_under_test="Bezold-Jarisch reflex (serotonin-induced decrease in heart rate)" readout="log10 ED50" meas_value=-0.52

Prompt: Hello, please tell me recorded log10 ED50 for this one: Cn1c(-c2ccc(Cl)cc2)c(C(=O)N[C@@H]2CN3CCC2CC3)c2ccccc21 [Example 7, hydrochloride]
Completion: -0.55

Prompt: Hello, please tell me recorded log10 ED50 for this one: Cn1c(-c2ccccc2Cl)c(C(=O)N[C@@H]2CN3CCC2CC3)c2ccccc21 [Example 12, hydrochloride]
Completion: -0.70

Prompt: Hello, please tell me recorded log10 ED50 for this one: COc1ccccc1-c1c(C(=O)N[C@@H]2CN3CCC2CC3)c2ccccc2n1C [Example 11, hydrochloride]
Completion: -0.85

----------
Target: muscarine M1 receptors (Rattus norvegicus, UniProt P08482)
Sequence (P08482 1-460): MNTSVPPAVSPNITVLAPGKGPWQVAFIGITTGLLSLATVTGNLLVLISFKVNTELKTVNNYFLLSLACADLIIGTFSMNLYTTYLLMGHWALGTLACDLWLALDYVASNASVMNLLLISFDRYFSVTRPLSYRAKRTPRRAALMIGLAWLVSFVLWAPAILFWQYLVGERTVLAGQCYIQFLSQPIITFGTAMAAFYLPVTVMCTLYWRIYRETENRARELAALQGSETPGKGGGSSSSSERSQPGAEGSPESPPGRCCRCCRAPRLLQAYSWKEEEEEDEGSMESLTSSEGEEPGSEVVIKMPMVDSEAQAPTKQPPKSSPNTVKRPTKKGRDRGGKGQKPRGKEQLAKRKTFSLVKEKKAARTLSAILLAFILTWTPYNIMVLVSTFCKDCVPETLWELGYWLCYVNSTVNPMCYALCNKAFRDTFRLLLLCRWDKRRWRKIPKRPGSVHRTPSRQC
Structures can show the parent of a compound that is named as a salt.
Readout: pIC50
Notebook: values listed as pIC50 are -log10 of the concentration (mol/L).

compound="COc1ccccc1-c1c(C(=O)N[C@@H]2CN3CCC2CC3)c2ccccc2n1C [Example 11, hydrochloride]" readout=pIC50 meas_value=5.34

Prompt: Hello, please tell me recorded pIC50 for this one: Cn1c(-c2ccccc2Cl)c(C(=O)N[C@@H]2CN3CCC2CC3)c2ccccc21 [Example 12, hydrochloride]
Completion: 5.92
